Assay: Inhibition of Herpes simplex virus type 1 ribonucleotide reductase
Format: functional, Human alphaherpesvirus 1
Can you tell me pIC50 for the items I'm about to list?
Please report pIC50 as the negative decimal logarithm of the molar concentration, giving only the number.

-- ask Give pIC50 for the following substance: H-AGAVVNDL-OH
-- reply 3.55

-- ask Dear colleague, please send me the reported pIC50 for H-GAVVNDL-OH when you can.
-- reply 3.66

-- ask // Input: H-AVVNDL-OH . Output its pIC50 only.
-- reply 3.72

====

Experiment: Inhibition of Herpes simplex virus type 1 ribonucleotide reductase
Assay type: functional, Human alphaherpesvirus 1
Where a SMILES comes first, the peptide text is derived from it. [ ]: non-standard residue; d: D form. The star is where a group is joined. ξ: configuration not given here. Asp(3,3-Me2) = CC(C)(C(=O)O)[C@H](N)C(=O)O; Cyclohexanecarbonyl = O=C(C1CCCCC1)*; Butanoyl(2-Et) = CCC(CC)C(=O)*; Thr(3ξ) = CC(O)[C@H](N)C(=O)O; Tle = CC(C)(C)[C@H](N)C(=O)O; Isobutyryl = CC(C)C(=O)*; Pyrrolidide = C1CCN(*)C1; Bn = c1ccc(C*)cc1
Note to self: use condition met only for IC50 readings below 3 µM; a reading exactly at 3 µM still gets condition not met.

-- ask Take the compound CCC(CC)C(=O)N[C@H](C(=O)N[C@@H](CC(=O)N1CCCC1)C(=O)N[C@@H](CC(=O)O)C(=O)N[C@@H](CC(C)C)C(=O)O)[C@@H](C)CC ({Butanoyl(2-Et)}-ID(Pyrrolidide)DL-OH) and say whether its IC50 is less than 3 µM.
-- reply condition met

-- ask Hello, is IC50 of the following compound strictly smaller than 3 µM? CCC(CC)C(=O)N[C@H](C(=O)N[C@@H](CC(=O)N1CCCC1)C(=O)N[C@@H](CC(=O)O)C(=O)N[C@@H](CC(C)C)C(=O)O)C(C)OCc1ccccc1 (stereo partly drawn) ({Butanoyl(2-Et)}-[Thr(3ξ)](Bn)D(Pyrrolidide)DL-OH)
-- reply condition not met

-- ask Decide: IC50 of CCC(CC)C(=O)N[C@H](C(=O)N[C@@H](CC(=O)N1CCCC1)C(=O)N[C@@H](CC(=O)O)C(=O)NC(CO)CO)C(C)(C)C strictly below 3 µM?
-- reply condition not met

-- ask is_below(IC50, 3 µM) for CC[C@H](C)[C@H](NC(=O)C1CCCCC1)C(=O)N[C@@H](CC(=O)N1CCCC1)C(=O)N[C@@H](CC(=O)O)C(=O)N[C@@H](CC(C)C)C(=O)O (Cyclohexanecarbonyl-ID(Pyrrolidide)DL-OH) ?
-- reply condition met

-- ask Dear colleague, could you confirm whether IC50 of CC[C@H](C)[C@H](NC(=O)C(C)C)C(=O)N[C@@H](CC(=O)N1CCCC1)C(=O)N[C@@H](CC(=O)O)C(=O)N[C@@H](CC(C)C)C(=O)O (Isobutyryl-ID(Pyrrolidide)DL-OH) falls below 3 µM? Thanks.
-- reply condition not met

-- ask Is the reported IC50 for CC[C@H](C)[C@H](NC(=O)[C@@H](N)C(C)C)C(=O)N[C@@H](CC(=O)N1CCCC1)C(=O)N[C@@H](CC(=O)O)C(=O)N[C@@H](CC(C)C)C(=O)O (H-VID(Pyrrolidide)DL-OH) strictly below 3 µM?
-- reply condition not met

-- ask Is it true that IC50 reported for CCOC(=O)C[C@H](NC(=O)[C@@H](NC(=O)C(CC)CC)C(C)(C)C)C(=O)N[C@@H](CC(=O)O)C(=O)N[C@@H](CC(C)C)C(=O)O ({Butanoyl(2-Et)}-[Tle]D(OEt)DL-OH) is less than 3 µM?
-- reply condition not met

-- ask Is IC50 of CCC(CC)C(=O)N[C@H](C(=O)N[C@@H](CC(=O)N1CCCC1)C(=O)N[C@@H](CC(=O)O)C(=O)N[C@H](CO)CC1CCCCC1)C(C)(C)C strictly below 3 µM?
-- reply condition not met

-- ask Lab log: compare recorded IC50 with 3 µM; is it strictly lower for CCC(CC)C(=O)NCC(=O)N[C@@H](CC(=O)N1CCCC1)C(=O)N[C@@H](CC(=O)O)C(=O)N[C@@H](CC(C)C)C(=O)O ({Butanoyl(2-Et)}-GD(Pyrrolidide)DL-OH) ?
-- reply condition not met

-- ask Answer whether the compound CCNC(=O)C[C@H](NC(=O)[C@@H](NC(=O)C(CC)CC)C(C)(C)C)C(=O)N[C@@H](CC(=O)O)C(=O)N[C@@H](CC(C)C)C(=O)O ({Butanoyl(2-Et)}-[Tle]D(NHEt)DL-OH) has IC50 strictly less than 3 µM
-- reply condition not met

-- ask Check if IC50 falls below 3 µM for CCC(CC)C(=O)N[C@H](C(=O)N[C@@H](CCC(=O)N1CCCC1)C(=O)N[C@@H](CC(=O)O)C(=O)N[C@@H](CC(C)C)C(=O)O)C(C)(C)C ({Butanoyl(2-Et)}-[Tle]E(Pyrrolidide)DL-OH) .
-- reply condition not met

-- ask Quick check: does CC(C)C[C@H](NC(=O)[C@H](CC(=O)O)NC(=O)[C@H](CC(N)=O)NC(=O)[C@@H](N)C(C)C)C(=O)O (H-VNDL-OH) have IC50 under 3 µM?
-- reply condition not met

-- ask API: query returns whether the compound falls strictly under 3 µM in IC50. Query: CCC(CC)C(=O)N[C@H](C(=O)N[C@@H](CC(=O)N1CCCC1)C(=O)N[C@@H](CC(=O)O)C(=O)NCCC(C)(C)C)C(C)(C)C
-- reply condition not met

-- ask is_below(IC50, 3 µM) for CCC(CC)C(=O)N[C@H](C(=O)N[C@@H](CC(=O)N1CCCC1)C(=O)N[C@@H](CC(=O)O)C(=O)N[C@@H](CC(C)C)C(=O)O)C(C)(C)C ({Butanoyl(2-Et)}-[Tle]D(Pyrrolidide)DL-OH) ?
-- reply condition met

-- ask Given the entry CCC(CC)C(=O)N[C@H](C(=O)N[C@@H](CC(=O)C1CCCC1)C(=O)N[C@@H](CC(=O)O)C(=O)N[C@@H](CC(C)C)C(=O)O)C(C)(C)C , would its reported IC50 be below 3 µM?
-- reply condition met

-- ask Consider CC(C)C[C@H](NC(=O)[C@H](CC(=O)O)NC(=O)[C@H](CC(N)=O)NC(=O)[C@@H](NC(=O)[C@@H](NC(=O)[C@H](C)NC(=O)CNC(=O)[C@H](C)NC(=O)[C@@H](N)Cc1ccc(O)cc1)C(C)C)C(C)C)C(=O)O . Does its IC50 lie strictly below 3 µM?
-- reply condition not met

-- ask Field: below-cutoff. Rule: recorded IC50 strictly less than 3 µM. Subject: CCC(CC)C(=O)N[C@H](C(=O)N[C@@H](CC(=O)N1CCCC1)C(=O)N[C@H](C(=O)N[C@@H](CC(C)C)C(=O)O)C(C)(C)C(=O)O)C(C)(C)C ({Butanoyl(2-Et)}-[Tle]D(Pyrrolidide)[Asp(3,3-Me2)]L-OH)
-- reply condition met

-- ask Strictly below 3 µM in IC50? CCC(CC)C(=O)N[C@@H](CCCCN)C(=O)N[C@@H](CC(=O)N1CCCC1)C(=O)N[C@@H](CC(=O)O)C(=O)N[C@@H](CC(C)C)C(=O)O ({Butanoyl(2-Et)}-KD(Pyrrolidide)DL-OH)
-- reply condition not met

-- ask Please check: IC50 for CCC(CC)C(=O)N[C@H](C(=O)N[C@@H](CC(=O)N1CCCC1)C(=O)N[C@@H](CC(=O)O)C(=O)N[C@@H](C)C(=O)O)C(C)(C)C ({Butanoyl(2-Et)}-[Tle]D(Pyrrolidide)DA-OH) , strictly under 3 µM or not?
-- reply condition not met
